- test_details: Solubility of the compound in water
- Type: physicochemical
property_name: solubility (µg/mL)

COc1cc(OC)c(/C=C/S(=O)(=O)Nc2ccc(OC)c(NC(C(=O)O)c3ccc(Br)cc3)c2)c(OC)c1 (configuration not stated); 10000
COc1cc(OC)c(/C=C/S(=O)(=O)Nc2ccc(OC)c(NC(C(=O)O)c3ccc(Cl)cc3)c2)c(OC)c1 (configuration not stated); 10000
COc1cc(OC)c(/C=C/S(=O)(=O)Nc2ccc(OC)c(NC(C)(C)C(=O)O)c2)c(OC)c1; 10000
COc1cc(OC)c(/C=C/S(=O)(=O)Nc2ccc(OC)c(NCC(=O)O)c2)c(OC)c1; 10000
COc1cc(OC)c(/C=C/S(=O)(=O)Nc2ccc(OC)c(NC(C(=O)O)c3ccccc3)c2)c(OC)c1 (configuration not stated); 10000
COc1cc(OC)c(/C=C/S(=O)(=O)Nc2ccc(OC)c(NC(C(=O)O)c3ccc(F)cc3)c2)c(OC)c1 (configuration not stated); 10000
COc1cc(OC)c(/C=C/S(=O)(=O)Nc2ccc(OC)c(NC(C)C(=O)O)c2)c(OC)c1 (configuration not stated); 10000
